Target: Lysosomal acid glucosylceramidase (Homo sapiens)
Sequence (P04062 whole entry): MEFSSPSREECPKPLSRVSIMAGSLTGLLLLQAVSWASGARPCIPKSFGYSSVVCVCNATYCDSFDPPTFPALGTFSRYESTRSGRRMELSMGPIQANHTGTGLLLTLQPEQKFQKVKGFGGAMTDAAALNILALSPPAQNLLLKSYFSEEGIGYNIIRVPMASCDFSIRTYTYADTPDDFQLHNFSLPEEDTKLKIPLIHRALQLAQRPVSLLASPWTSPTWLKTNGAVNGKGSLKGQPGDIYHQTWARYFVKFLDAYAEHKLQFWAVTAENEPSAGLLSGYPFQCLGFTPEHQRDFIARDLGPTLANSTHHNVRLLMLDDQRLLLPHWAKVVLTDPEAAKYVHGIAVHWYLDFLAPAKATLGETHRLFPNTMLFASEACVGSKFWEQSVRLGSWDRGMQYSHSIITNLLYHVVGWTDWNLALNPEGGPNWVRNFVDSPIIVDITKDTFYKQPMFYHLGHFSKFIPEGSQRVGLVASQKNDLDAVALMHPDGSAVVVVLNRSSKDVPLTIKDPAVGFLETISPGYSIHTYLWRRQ
Assay: Inhibition of human lysosomal beta-glucocerebrosidase

{"columns": ["Smiles text", "Units text", "Ki"],
 "data": [
  ["O[C@@H]1[C@@H](O)[C@@H](CCCCCOCC23CC4CC(CC(C4)C2)C3)NC[C@H]1O", "nM", 1]
]}
